Each entry below carries its recorded Tmax.
# Experimental details: Pharmacokinetics study in rats (plasma and brain)
# Type: in vivo, Sprague−Dawley rats
# Condition set: Sprague-Dawley; rat, 5 mg/kg IP, brain; read-out: Tmax (h) brain
# Experimental: Given their adequate in vitro stability profiles, we next evaluated the in vivo pharmacokinetic profiles of 14, 15, 17, and 18 in rats. Sprague−Dawley rats were dosed with 5 mg/kg (14, 15, 17) or 10 mg/kg (18), i.p., and plasma and brain levels of each drug were measured 0−6 h postdose. All animal experiments were performed following the protocols evaluated and approved by the Animal Care and Use Committee at Johns Hopkins University (Ethics Approval Number: RA24M403). […]
Write it as a number; the unit h goes unstated.

>>> recorded_number("Cc1cccc(-n2cc(CN3CCN(c4ccc(Cl)cn4)CC3)nn2)c1 [Compound 17]")
0.25
>>> recorded_number("Cc1cccc(-n2cc(CN3CCN(c4ccccn4)CC3)nn2)c1 [Compound 15]")
0.25

Quick one: give measured Tmax for Cc1cccc(-n2cc(CN3CCC(c4ccccc4)CC3)nn2)c1 [Compound 14] 0.25

----------
# Experimental details: Pharmacokinetics study in rats (plasma and brain)
# Format: in vivo, Sprague−Dawley rats
# Condition set: Sprague-Dawley, rat, plasma and brain, ip, 5 mg/kg, 5 mg/kg IP, tissue not specified, read-out: half-life (converted)
Endpoint label: half-life

The following compounds have reported results that may help.
>>> result("Cc1cccc(-n2cc(CN3CCC(c4ccccc4)CC3)nn2)c1 [Compound 14]")
"≤ 0.4 h"
>>> result("Cc1cccc(-n2cc(CN3CCN(c4ccccn4)CC3)nn2)c1 [Compound 15]")
"> 1.1 h"

Next up:
Quick one: give measured half-life for Cc1cccc(-n2cc(CN3CCN(c4ccc(Cl)cn4)CC3)nn2)c1 [Compound 17] ≥ 2.1 h

----------
# Assayed system: human D4R (Homo sapiens, UniProt P21917)
# Sequence (P21917 1-419): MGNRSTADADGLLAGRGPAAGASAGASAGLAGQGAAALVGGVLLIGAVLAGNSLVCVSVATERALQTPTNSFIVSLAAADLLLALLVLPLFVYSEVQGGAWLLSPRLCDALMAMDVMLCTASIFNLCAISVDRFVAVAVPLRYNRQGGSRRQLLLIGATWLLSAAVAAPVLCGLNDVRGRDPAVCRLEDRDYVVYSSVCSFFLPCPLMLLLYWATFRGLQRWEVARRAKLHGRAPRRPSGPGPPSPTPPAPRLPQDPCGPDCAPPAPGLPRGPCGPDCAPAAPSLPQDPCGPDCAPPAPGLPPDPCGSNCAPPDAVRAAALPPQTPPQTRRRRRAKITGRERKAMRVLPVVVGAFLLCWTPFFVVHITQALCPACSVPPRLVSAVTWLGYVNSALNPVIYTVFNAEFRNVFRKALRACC
Each entry below carries its recorded EC50.
Write it as a number; the unit nM goes unstated.

The following compounds have reported results that may help.
>>> recorded_number("Cc1cccc(NC(=O)CN2CCC(c3ccccc3)CC2)c1")
7.54
>>> recorded_number("Cc1cccc(-n2cc(CN3CCC(c4ccccc4)CC3)nn2)c1")
44.5
>>> recorded_number("Cc1cccc(-n2cc(CN3CCN(c4cccc5ccccc45)CC3)nn2)c1")
2140

Quick one: give measured EC50 for `Cc1cccc(NC(=O)CN2CCN(c3ccccn3)CC2)c1` 2.92

Quick one: give measured EC50 for `Cc1cccc(-n2cc(CN3CCN(c4ncccn4)CC3)nn2)c1` 7.68

----------
# Experimental details: Phase I metabolic stability in rat liver microsomes (with NADPH)
# Format: in vitro ADME
# Condition set: pH 7.4, presence of NADPH, mean ± SD, n = 3
Each entry below carries its recorded half-life.
Write it as a number; the unit min goes unstated.

>>> recorded_number("Cc1cccc(-n2cc(CN3CCC(c4ccccc4)CC3)nn2)c1")
13.4
>>> recorded_number("Cc1cccc(NC(=O)CN2CCN(c3ncccn3)CC2)c1")
26.8
>>> recorded_number("Cc1cccc(NC(=O)CN2CCN(c3ccccn3)CC2)c1")
9.92
>>> recorded_number("Cc1cccc(-n2cc(CN3CCN(c4cccc5ccccc45)CC3)nn2)c1")
56.8

Next up:
Quick one: give measured half-life for `CCc1cccc(NC(=O)CN2CCN(c3ccccn3)CC2)c1` 20.8

----------
For reference, EC50 measured on human D4R (Homo sapiens):
Write it as a number; the unit nM goes unstated.

The following compounds have reported results that may help.
>>> recorded_number("CCc1cccc(NC(=O)CN2CCN(c3ccccn3)CC2)c1 [Compound 3]")
5.38
>>> recorded_number("Cc1cccc(-n2cc(CN3CCN(c4ccccn4)CC3)nn2)c1 [Compound 15]")
5.29

Next up:
Enter recorded EC50 with human D4R (Homo sapiens) for Cc1cccc(NC(=O)CN2CCN(c3ncccn3)CC2)c1 [Compound 4] here. 7.93
